# MEASURED ON: T1, biotinylated Aβ1-40 peptide (biotinylated (N-biotinylated in Example 7))
# T1 construct: captured on streptavidin (SA) chip; also called Biotinylated Aβ peptide 1-40; Aβ1-40 on SA chip
# MEASUREMENT PROTOCOL: SPR, Fab over Aβ1-40 on SA chip; KD=koff/kon
pKd: −log10 of the molar value.
Label TRUE when pKd is at or above 8; anything below gets FALSE.

9TL variant M48 Fab (Fab, V domains shown, Fab; human IgG2 CH1 and kappa CL) VH: QVQLVQSGAEVKKPGASVKVSCKASGYYTEAYYIHWVRQAPGQGLEWMGRIDPATGNTKYAPRLQDRVTMTRDTSTSTVYMELSSLRSEDTAVYYCASLYSLPSYWGQGTTVTVSS VL: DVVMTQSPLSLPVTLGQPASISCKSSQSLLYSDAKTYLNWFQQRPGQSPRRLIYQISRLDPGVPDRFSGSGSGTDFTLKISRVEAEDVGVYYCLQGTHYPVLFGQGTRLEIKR | FALSE
9TL variant M17 Fab (Fab, V domains shown, Fab; human IgG2 CH1 and kappa CL) VH: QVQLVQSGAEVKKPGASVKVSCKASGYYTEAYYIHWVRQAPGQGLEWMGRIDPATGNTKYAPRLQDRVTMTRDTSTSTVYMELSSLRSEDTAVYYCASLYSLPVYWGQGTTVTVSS VL: DVVMTQSPLSLPVTLGQPASISCKSSQSLLYSDAKTYLNWFQQRPGQSPRRLIYQISRLDPGVPDRFSGSGSGTDFTLKISRVEAEDVGVYYCLQGTHWPVLFGQGTRLEIKR | TRUE
9TL variant M15 Fab (Fab, V domains shown, Fab; human IgG2 CH1 and kappa CL) VH: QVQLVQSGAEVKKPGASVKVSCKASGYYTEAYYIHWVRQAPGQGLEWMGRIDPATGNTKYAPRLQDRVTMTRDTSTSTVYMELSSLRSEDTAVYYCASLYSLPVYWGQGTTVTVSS VL: DVVMTQSPLSLPVTLGQPASISCKSSQSLLYSDAKTYLNWFQQRPGQSPRRLIYQISRLDPGVPDRFSGSGSGTDFTLKISRVEAEDVGVYYCLQGTHPPVLFGQGTRLEIKR | TRUE
9TL variant M27 Fab (Fab, V domains shown, Fab; human IgG2 CH1 and kappa CL) VH: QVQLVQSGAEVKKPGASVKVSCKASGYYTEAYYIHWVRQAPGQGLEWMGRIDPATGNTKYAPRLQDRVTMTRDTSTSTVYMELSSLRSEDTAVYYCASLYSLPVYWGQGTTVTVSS VL: DVVMTQSPLSLPVTLGQPASISCKSSQSLLYSDAKTYLNWFQQRPGQSPRRLIYQISRLDPGVPDRFSGSGSGTDFTLKISRVEAEDVGVYYCLQGTHYPELFGQGTRLEIKR | FALSE

Here's the next entry for you.
query: hey, is pKd for this one >= 8? 9TL variant M49 Fab (Fab, V domains shown, Fab; human IgG2 CH1 and kappa CL) VH: QVQLVQSGAEVKKPGASVKVSCKASGYYTEAYYIHWVRQAPGQGLEWMGRIDPATGNTKYAPRLQDRVTMTRDTSTSTVYMELSSLRSEDTAVYYCASLYSLPNYWGQGTTVTVSS VL: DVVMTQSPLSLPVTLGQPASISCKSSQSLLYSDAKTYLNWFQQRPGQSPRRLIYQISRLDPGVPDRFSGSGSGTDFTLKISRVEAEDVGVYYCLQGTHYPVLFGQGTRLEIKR
result: FALSE
